normalized growth: recorded values
# Assay Info: chemical genetic growth profiling, strain panel (AID 1159580);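 also: tested at 20 µM; growth read once vehicle control cultures reached saturation at 30 °C; 1 = growth at the plate median or of vehicle wells; lower values mean less growth of the strain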
# Recorded Conditions: S. cerevisiae deletion strains, growth OD, locus YLR370C, strain arc18, active compounds read low
Hit rate of the full screen: of about 5,500 compounds, about 2,000 (36%) were called active. Not shown: some 18% with an inconclusive outcome. Some of the results follow.
Please reply with the value in numeric form only.

Please review the entries below; each comes with its answer.
Compound	normalized growth
C[C@H]1C(=O)CCC2[C@]3(C)CC[C@@]4(C)C5CC(C)(C)CC[C@]5(C)CC[C@]4(C)C3CC[C@@]21C (stereo partly drawn)	1.02
Cc1cc2nc3c(=O)[nH]c(=O)nc-3n(CC(O)C(O)C(O)CO)c2cc1C (stereo not drawn)	1.01

Per the record, `C=C[C@H]1CN2CC[C@H]1C[C@H]2[C@H](O)c1ccnc2ccccc12` has normalized growth of 0.995

* * *

normalized growth: recorded values
# Assay Info: chemical genetic growth profiling, strain panel (AID 1159580)
# Recorded Conditions: S. cerevisiae deletion strains, growth OD, locus YDR054C, strain cdc34, active compounds read low
In all, about 5,500 compounds went through this assay and about 2,000 (36%) were called active. Inconclusive results (about 18%) are left out. The list shows a part of the results.
Please reply with the value in numeric form only.

Per the record, `Cc1oc(C(C)(C)C)cc1-c1cc(NC(=O)c2ccccc2)n[nH]1` has normalized growth of 0.966

Per the record, `Cn1ncc(-c2nc(-c3ccc(Cl)cc3)cs2)c1N` has normalized growth of 0.91

Per the record, `CC(C)c1cccc(C(C)C)c1OC(=O)NC(=O)c1c(Cl)cccc1Cl` has normalized growth of 0.977

Per the record, `CC(C)OC(=O)Nc1cc(Cl)cc(Cl)c1` has normalized growth of 0.939

Per the record, `COc1ccc(OC)c2nc3c(nc12)C(=O)c1ccccc1-3` has normalized growth of 0.957

* * *

# Assay Info: chemical genetic growth profiling, strain panel (AID 1159580)
# Recorded Conditions: S. cerevisiae deletion strains, growth OD, locus YFL009W, strain cdc4, active compounds read low
The campaign covered roughly 5,500 compounds. About 2,000 (36%) were called active. About 18% were inconclusive and are not listed. Some of the results follow.
normalized growth: recorded values

Compound	normalized growth
CCOC(=O)C(O)(c1ccc(NC(=O)c2ccc(Cl)c(Cl)c2)cc1)C(F)(F)F (stereo unspecified)	0.99 (inactive)

Per the record, `COC(=O)c1sccc1S(=O)(=O)Nc1cc(C(F)(F)F)cc(C(F)(F)F)c1` has normalized growth of 0.965 (inactive)

Per the record, `Cn1cc(Br)c(-c2cccc(NS(=O)(=O)c3ccc(Cl)cc3)c2)n1` has normalized growth of 0.989 (inactive)

Per the record, `CC(C)Sc1c(Cl)cccc1NC(=O)Nc1cccc(C(F)(F)F)c1` has normalized growth of 0.99 (inactive)

Per the record, `O=C1C(NCc2ccccc2)=C(NCc2ccccc2)C(=O)c2ccccc21` has normalized growth of 0.902 (inactive)

Per the record, `Cn1ncc(-c2nc(-c3ccc(Cl)cc3)cs2)c1N` has normalized growth of 0.935 (inactive)

Per the record, `Cc1cc(Sc2c([N+](=O)[O-])cc(C(F)(F)F)cc2[N+](=O)[O-])c(Cl)cc1Cl` has normalized growth of 0.992 (inactive)

Per the record, `S=C(NCCc1csc2ccccc12)Nc1ccc(Cl)cc1` has normalized growth of 0.944 (inactive)

* * *

normalized growth: recorded values
# Assay Info: chemical genetic growth profiling, strain panel (AID 1159580);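 also: tested at 20 µM; growth read once vehicle control cultures reached saturation at 30 °C; 1 = growth at the plate median or of vehicle wells; lower values mean less growth of the strain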
# Recorded Conditions: S. cerevisiae deletion strains, growth OD, locus YHR079C, strain IRE1 (second series), active compounds read low
Hit rate of the full screen: of about 5,500 compounds, about 2,000 (36%) were called active. About 18% were inconclusive and are not listed. The list shows a part of the results.
Please reply with the value in numeric form only.

Compound	normalized growth
COP(=O)(NC(C)=O)SC (stereo not given)	0.998

Per the record, `CNC(=O)Oc1cccc2c1OC(C)(C)C2` has normalized growth of 0.996

Per the record, CC(=O)Oc1c(C)c(C)c2c(c1C)CCC(C)(CCCC(C)CCCC(C)CCCC(C)C)O2 (stereo not given) has normalized growth of 1

Per the record, `O=C(O)CC[N+](=O)[O-]` has normalized growth of 0.996

Per the record, CC(=O)O[C@@H]1C2CC[C@@H]3C1(C[C@@H](O)[C@@]1(O)[C@@H](C[C@H](O)C1(C)C)[C@]3(C)O)C[C@@]2(C)O (stereo not given in full) has normalized growth of 0.983

Per the record, `Cn1cnc2c1c(=O)[nH]c(=O)n2C` has normalized growth of 1.02

Per the record, `CC1=C(C(=O)O)N2C(=O)[C@@H](NC(=O)[C@@H](N)c3ccc(O)cc3)[C@H]2SC1` has normalized growth of 0.985

Per the record, CC(=O)OC1CCC2(O)CC1(C)CCC1C2CC1(C)C (stereo not given) has normalized growth of 0.982

Per the record, `CC(C)OC(=O)Nc1cccc(Cl)c1` has normalized growth of 0.973

Per the record, `O=C1c2ccccc2C(=O)c2ccccc21` has normalized growth of 0.994

Per the record, `N[C@@H](C(=O)N[C@@H]1C(=O)N2C(C(=O)O)=C(Cl)CS[C@H]12)c1ccccc1` has normalized growth of 1.02

Per the record, `O=C(O)c1cc(=O)c2ccccc2[nH]1` has normalized growth of 0.989

Per the record, `CON` has normalized growth of 0.98

Per the record, `CC(C)[C@@H]1CC[C@@H](C)C[C@H]1OC(=O)c1ccccc1` has normalized growth of 0.997

Per the record, C[N+]12CCC(CC1)C(OC(=O)C(O)(c1ccccc1)c1ccccc1)C2 (stereo not given) has normalized growth of 0.97

* * *

# Assay Info: chemical genetic growth profiling, strain panel (AID 1159580);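 also: tested at 20 µM; growth read once vehicle control cultures reached saturation at 30 °C; 1 = growth at the plate median or of vehicle wells; lower values mean less growth of the strain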
# Recorded Conditions: S. cerevisiae deletion strains, growth OD, locus YOR290C, strain snf2
The campaign covered roughly 5,500 compounds. About 2,000 (36%) were called active. Roughly 18% stayed inconclusive and do not appear here. Cut-off read from the data, not from the text of the source: active = normalized growth mostly below about 0.91 (no sharp cut-off); inconclusive = no clear call, values can overlap the other calls; inactive = mostly above about 0.92. The list shows a part of the results.
Assign a class; possible classes are T for active, F for inactive

Compound	Label
CC(C)CCCC(C)N (stereo unspecified)	F
Cn1c(=O)c2c(ncn2C)n(C)c1=O	F
CCC[C@@H]1C[C@@H](C(=O)N[C@H]([C@H]2O[C@H](SC)[C@H](O)[C@@H](O)[C@H]2O)[C@H](C)O)N(C)C1	F
CC12CCC(OC(=O)c3ccccc3)CC1CCc1ccccc12 (stereo unspecified)	F
Cn1c(=O)c2c(ncn2CCO)n(C)c1=O	F

# lookup: test call for `CCCCCCCCCCCCCCCC(=O)OC[C@H](NC(=O)C(Cl)Cl)[C@H](O)c1ccc([N+](=O)[O-])cc1`
F

# lookup: test call for COc1ccccc1OCC(O)COC(N)=O (stereo unspecified)
F

# lookup: test call for `NC(=NCCCCCCN=C(N)N=C(N)Nc1ccc(Cl)cc1)N=C(N)Nc1ccc(Cl)cc1`
T

# lookup: test call for CCCC(=O)Nc1ccc(OCC(O)CNC(C)C)c(C(C)=O)c1 (stereo unspecified)
F

# lookup: test call for `O=C1C=C(O)c2ccccc2C1=O`
F

# lookup: test call for `CNC(C)(C)Cc1ccccc1`
F

# lookup: test call for CC(=O)OC1CCC2(O)CC1(C)CCC1C2CC1(C)C (stereo unspecified)
F

# lookup: test call for `Cn1cnc2c1c(=O)[nH]c(=O)n2C`
F

# lookup: test call for `CC(C)[C@@H]1CC[C@@H](C)C[C@H]1OC(=O)c1ccccc1`
F

# lookup: test call for CC(=O)Oc1c(C)c(C)c2c(c1C)CCC(C)(CCCC(C)CCCC(C)CCCC(C)C)O2 (stereo unspecified)
F

# lookup: test call for CC(=O)O[C@@H]1C2CC[C@@H]3C1(C[C@@H](O)[C@@]1(O)[C@@H](C[C@H](O)C1(C)C)[C@]3(C)O)C[C@@]2(C)O (stereo partly specified)
F

# lookup: test call for `O=c1c(O)c(-c2ccccc2)oc2ccc3occc3c12`
T

# lookup: test call for `O=c1c(O)c(-c2ccccc2)oc2cc(O)ccc12`
T

# lookup: test call for COC1=CC23CCCN2CCc2cc4c(cc2C3C1O)OCO4 (stereo unspecified)
F

# lookup: test call for `NNCc1ccccc1`
F

# lookup: test call for CC(=O)OC1CCC23CC1(C)CCC2C(C)(C)CC3OC(C)=O (stereo unspecified)
F

* * *

# Assay Info: chemical genetic growth profiling, strain panel (AID 1159580);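 also: tested at 20 µM; growth read once vehicle control cultures reached saturation at 30 °C; 1 = growth at the plate median or of vehicle wells; lower values mean less growth of the strain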
# Recorded Conditions: S. cerevisiae deletion strains, growth OD, locus YER133W, strain GLC7, active compounds read low
Hit rate of the full screen: of about 5,500 compounds, about 2,000 (36%) were called active. Not shown: some 18% with an inconclusive outcome. The list shows a part of the results.
Test Readout: normalized growth
Please reply with the value in numeric form only.

Compound Smiles	normalized growth
O=[N+]([O-])c1ccc(NCc2ccc(Cl)c(Cl)c2)nc1	0.842

Per the record, `CC(=O)c1ccc(Sc2ccccc2)c([N+](=O)[O-])c1` has normalized growth of 0.874

Per the record, `CC(C)Sc1c(Cl)cccc1NC(=O)Nc1ccccc1` has normalized growth of 0.899

Per the record, `Cn1ncc(-c2nc(-c3ccc(Cl)cc3)cs2)c1N` has normalized growth of 0.75

Per the record, `O=S(=O)(Nc1c(F)cccc1F)c1ccc(Cl)c(Cl)c1` has normalized growth of 0.964

Origin of measurements: PubChem BioAssay AID1159580
